Target: NEK9 (human) (UniProt Q8TD19)
Sequence (Q8TD19 whole entry, looked up): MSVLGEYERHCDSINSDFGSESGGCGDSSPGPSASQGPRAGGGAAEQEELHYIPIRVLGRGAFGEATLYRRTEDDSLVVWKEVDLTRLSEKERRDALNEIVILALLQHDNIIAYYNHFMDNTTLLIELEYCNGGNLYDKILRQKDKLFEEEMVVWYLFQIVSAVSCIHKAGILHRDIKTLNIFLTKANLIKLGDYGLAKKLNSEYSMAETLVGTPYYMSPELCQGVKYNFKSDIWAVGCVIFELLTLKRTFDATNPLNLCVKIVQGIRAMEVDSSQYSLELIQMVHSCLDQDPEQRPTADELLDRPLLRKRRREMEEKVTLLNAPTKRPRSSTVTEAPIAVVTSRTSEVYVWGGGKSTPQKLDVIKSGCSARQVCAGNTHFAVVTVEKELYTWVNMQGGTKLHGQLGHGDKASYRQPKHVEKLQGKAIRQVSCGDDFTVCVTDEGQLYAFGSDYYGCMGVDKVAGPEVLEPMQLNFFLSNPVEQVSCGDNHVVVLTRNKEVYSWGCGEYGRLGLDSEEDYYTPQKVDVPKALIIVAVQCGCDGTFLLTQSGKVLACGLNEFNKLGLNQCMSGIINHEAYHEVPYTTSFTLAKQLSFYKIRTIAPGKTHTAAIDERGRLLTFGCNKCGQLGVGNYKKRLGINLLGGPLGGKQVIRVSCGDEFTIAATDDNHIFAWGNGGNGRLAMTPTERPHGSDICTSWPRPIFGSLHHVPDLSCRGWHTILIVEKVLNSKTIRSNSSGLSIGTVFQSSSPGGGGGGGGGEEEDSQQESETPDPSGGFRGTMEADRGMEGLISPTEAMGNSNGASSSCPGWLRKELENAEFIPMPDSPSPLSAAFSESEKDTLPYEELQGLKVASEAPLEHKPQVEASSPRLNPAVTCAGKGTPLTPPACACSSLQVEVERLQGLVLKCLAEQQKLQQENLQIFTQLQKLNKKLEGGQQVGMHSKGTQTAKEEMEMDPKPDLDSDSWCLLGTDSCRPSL
Test: KINOMEscan competition binding
Details: compound 10.0 µM

Molecule | Tgt | Unit Name | kinase still bound, per cent of control
O=C1NC(=O)/C(=C/c2c[nH]c(=O)c(-c3ccc(N4CCNCC4)nc3)c2)S1 | NEK9 (human) (UniProt Q8TD19) | % | 71
COc1cc(N2CCN(C)CC2)ccc1Nc1ncc2c(n1)Nc1ccccc1NC2=O | NEK9 (human) (UniProt Q8TD19) | % | 87
CN1CCN(c2ccc(C(=O)Nc3ncc4c(n3)N(C)c3ccccc3C(=O)N4C)cc2)CC1 | NEK9 (human) (UniProt Q8TD19) | % | 100
CN1C(=O)c2ccccc2N(C)c2nc(NS(=O)(=O)c3ccc(N)cc3)ncc21 | NEK9 (human) (UniProt Q8TD19) | % | 100
COc1cc(N2CCN(C)CC2)ccc1Nc1ncc2c(n1)N(C)c1sccc1C(=O)N2C | NEK9 (human) (UniProt Q8TD19) | % | 94
CN1C(=O)c2ccccc2N(C)c2nc(Nc3ccc(N4CCC(O)CC4)cc3)ncc21 | NEK9 (human) (UniProt Q8TD19) | % | 100
COc1cc(N2CCC(O)CC2)ccc1Nc1ncc2c(n1)N1CCc3cccc(c31)C(=O)N2C | NEK9 (human) (UniProt Q8TD19) | % | 77
COc1cc(N2CCN(C)CC2)ccc1Nc1ncc2c(n1)N(C)c1ccccc1N(C)C2=O | NEK9 (human) (UniProt Q8TD19) | % | 97
CN1C(=O)[C@H]2CCC[C@H]2N(C2CCCC2)c2nc(Nc3ccc4ncccc4c3)ncc21 | NEK9 (human) (UniProt Q8TD19) | % | 30
CN1C(=O)[C@H]2CCC[C@H]2N(C2CCCC2)c2nc(Nc3ccc(C(N)=O)cc3)ncc21 | NEK9 (human) (UniProt Q8TD19) | % | 8.9
COc1cc(N2CCN(C)CC2)ccc1Nc1ncc2c(n1)N(C1CCCC1)C(C)CC(=O)N2 (stereo unspecified) | NEK9 (human) (UniProt Q8TD19) | % | 27

* * *

Biological target: PIK3CG (human)
Experiment: KINOMEscan competition binding
Details: compound 10.0 µM
kinase still bound, per cent of control values, listed per item
Measured Quantity: kinase still bound, per cent of control

Compound Smiles | Result
N=C1NC(=O)/C(=C/c2ccc(-c3ccc(C(N)=O)cc3O)o2)S1 | 2.6%
CS(=O)(=O)Nc1ccc(-c2cncc(/C=C3\SC(=N)NC3=O)c2)cc1 | 32%
O=C1NC(=S)S/C1=C\c1ccc(-c2cncc3ccccc23)o1 | 16%
CN1C(=O)c2ccccc2N(C)c2nc(Nc3ccc(N4CCC(O)CC4)cn3)ncc21 | 2.2%
COc1cc(N2CCN(C)CC2)ccc1Nc1ncc2c(n1)Nc1ccccc1NC2=O | 100%

* * *

System: RET (human), P07949 [M918T]
Sequence (P07949 whole entry M918T, looked up): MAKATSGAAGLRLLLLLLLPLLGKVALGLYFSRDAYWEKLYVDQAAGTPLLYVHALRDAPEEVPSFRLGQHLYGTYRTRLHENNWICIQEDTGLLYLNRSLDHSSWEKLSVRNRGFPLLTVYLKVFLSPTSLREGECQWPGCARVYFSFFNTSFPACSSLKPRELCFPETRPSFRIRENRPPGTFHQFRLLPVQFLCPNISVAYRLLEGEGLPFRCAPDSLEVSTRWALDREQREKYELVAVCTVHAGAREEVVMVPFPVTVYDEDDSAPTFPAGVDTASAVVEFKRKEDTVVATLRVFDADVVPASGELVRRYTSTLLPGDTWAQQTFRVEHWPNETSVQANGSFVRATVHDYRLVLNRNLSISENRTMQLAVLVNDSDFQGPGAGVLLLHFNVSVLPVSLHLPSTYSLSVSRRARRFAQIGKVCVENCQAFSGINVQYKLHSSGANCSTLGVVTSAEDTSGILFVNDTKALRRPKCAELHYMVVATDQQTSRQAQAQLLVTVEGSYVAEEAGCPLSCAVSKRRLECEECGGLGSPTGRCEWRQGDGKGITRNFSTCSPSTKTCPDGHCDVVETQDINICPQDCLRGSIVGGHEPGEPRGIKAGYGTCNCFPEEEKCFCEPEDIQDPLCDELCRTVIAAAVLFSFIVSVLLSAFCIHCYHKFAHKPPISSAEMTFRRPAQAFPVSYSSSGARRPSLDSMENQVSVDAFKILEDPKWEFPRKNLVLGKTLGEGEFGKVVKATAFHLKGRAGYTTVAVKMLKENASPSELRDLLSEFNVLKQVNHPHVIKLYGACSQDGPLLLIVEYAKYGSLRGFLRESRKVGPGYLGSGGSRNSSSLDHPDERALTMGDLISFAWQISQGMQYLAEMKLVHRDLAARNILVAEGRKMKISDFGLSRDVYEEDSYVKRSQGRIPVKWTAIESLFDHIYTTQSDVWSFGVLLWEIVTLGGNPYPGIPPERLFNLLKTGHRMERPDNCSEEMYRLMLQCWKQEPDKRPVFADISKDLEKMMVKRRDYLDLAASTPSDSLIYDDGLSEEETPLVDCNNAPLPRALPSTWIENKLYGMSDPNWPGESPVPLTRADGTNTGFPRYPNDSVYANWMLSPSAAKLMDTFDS
Assay: KINOMEscan competition binding
Details: compound 10.0 µM
Measured Quantity: kinase still bound, per cent of control

Compound Smiles | Result
O=C1NC(=O)/C(=C/c2c[nH]c(=O)c(-c3ccc(N4CCNCC4)nc3)c2)S1 | 46%
COc1cc(N2CCN(C)CC2)ccc1Nc1ncc2c(n1)N(C)c1ccccc1N(C)C2=O | 100%
CN1C(=O)c2ccccc2N(C)c2nc(NS(=O)(=O)c3ccc(N)cc3)ncc21 | 100%
